// provenance: ChEMBL document CHEMBL1681775

assay: Metabolic stability in dog liver microsomes assessed as compound remaining after 45 mins; type: ADME, Canis lupus familiaris, Microsome; settings: read-out: Stability
experimental.endpoint: remaining at 0.75 h (%)

Nc1nc(CC(=O)Nc2ccc(C[C@@H]3CC[C@H]([C@H](O)c4ccccc4)N3)cc2)cs1; 23

###

// values below are reported Vd
test: Volume of distribution in dog; format: ADME, organism-based, Canis lupus familiaris; details: in vivo
experimental.endpoint: Vd (L/kg)

Nc1nc(CC(=O)Nc2ccc(C[C@@H]3CC[C@H]([C@H](O)c4ccccc4)N3)cc2)cs1; 14
O=S(=O)(Nc1ccc(CCNC[C@H](O)c2cccnc2)cc1)c1ccc(-c2nc(-c3ccc(C(F)(F)F)cc3)cs2)cc1; 12

###

target: Nav1.5 (Homo sapiens); assay: Inhibition of human Nav1.5 at 30 uM
Sequence (Q14524 whole entry): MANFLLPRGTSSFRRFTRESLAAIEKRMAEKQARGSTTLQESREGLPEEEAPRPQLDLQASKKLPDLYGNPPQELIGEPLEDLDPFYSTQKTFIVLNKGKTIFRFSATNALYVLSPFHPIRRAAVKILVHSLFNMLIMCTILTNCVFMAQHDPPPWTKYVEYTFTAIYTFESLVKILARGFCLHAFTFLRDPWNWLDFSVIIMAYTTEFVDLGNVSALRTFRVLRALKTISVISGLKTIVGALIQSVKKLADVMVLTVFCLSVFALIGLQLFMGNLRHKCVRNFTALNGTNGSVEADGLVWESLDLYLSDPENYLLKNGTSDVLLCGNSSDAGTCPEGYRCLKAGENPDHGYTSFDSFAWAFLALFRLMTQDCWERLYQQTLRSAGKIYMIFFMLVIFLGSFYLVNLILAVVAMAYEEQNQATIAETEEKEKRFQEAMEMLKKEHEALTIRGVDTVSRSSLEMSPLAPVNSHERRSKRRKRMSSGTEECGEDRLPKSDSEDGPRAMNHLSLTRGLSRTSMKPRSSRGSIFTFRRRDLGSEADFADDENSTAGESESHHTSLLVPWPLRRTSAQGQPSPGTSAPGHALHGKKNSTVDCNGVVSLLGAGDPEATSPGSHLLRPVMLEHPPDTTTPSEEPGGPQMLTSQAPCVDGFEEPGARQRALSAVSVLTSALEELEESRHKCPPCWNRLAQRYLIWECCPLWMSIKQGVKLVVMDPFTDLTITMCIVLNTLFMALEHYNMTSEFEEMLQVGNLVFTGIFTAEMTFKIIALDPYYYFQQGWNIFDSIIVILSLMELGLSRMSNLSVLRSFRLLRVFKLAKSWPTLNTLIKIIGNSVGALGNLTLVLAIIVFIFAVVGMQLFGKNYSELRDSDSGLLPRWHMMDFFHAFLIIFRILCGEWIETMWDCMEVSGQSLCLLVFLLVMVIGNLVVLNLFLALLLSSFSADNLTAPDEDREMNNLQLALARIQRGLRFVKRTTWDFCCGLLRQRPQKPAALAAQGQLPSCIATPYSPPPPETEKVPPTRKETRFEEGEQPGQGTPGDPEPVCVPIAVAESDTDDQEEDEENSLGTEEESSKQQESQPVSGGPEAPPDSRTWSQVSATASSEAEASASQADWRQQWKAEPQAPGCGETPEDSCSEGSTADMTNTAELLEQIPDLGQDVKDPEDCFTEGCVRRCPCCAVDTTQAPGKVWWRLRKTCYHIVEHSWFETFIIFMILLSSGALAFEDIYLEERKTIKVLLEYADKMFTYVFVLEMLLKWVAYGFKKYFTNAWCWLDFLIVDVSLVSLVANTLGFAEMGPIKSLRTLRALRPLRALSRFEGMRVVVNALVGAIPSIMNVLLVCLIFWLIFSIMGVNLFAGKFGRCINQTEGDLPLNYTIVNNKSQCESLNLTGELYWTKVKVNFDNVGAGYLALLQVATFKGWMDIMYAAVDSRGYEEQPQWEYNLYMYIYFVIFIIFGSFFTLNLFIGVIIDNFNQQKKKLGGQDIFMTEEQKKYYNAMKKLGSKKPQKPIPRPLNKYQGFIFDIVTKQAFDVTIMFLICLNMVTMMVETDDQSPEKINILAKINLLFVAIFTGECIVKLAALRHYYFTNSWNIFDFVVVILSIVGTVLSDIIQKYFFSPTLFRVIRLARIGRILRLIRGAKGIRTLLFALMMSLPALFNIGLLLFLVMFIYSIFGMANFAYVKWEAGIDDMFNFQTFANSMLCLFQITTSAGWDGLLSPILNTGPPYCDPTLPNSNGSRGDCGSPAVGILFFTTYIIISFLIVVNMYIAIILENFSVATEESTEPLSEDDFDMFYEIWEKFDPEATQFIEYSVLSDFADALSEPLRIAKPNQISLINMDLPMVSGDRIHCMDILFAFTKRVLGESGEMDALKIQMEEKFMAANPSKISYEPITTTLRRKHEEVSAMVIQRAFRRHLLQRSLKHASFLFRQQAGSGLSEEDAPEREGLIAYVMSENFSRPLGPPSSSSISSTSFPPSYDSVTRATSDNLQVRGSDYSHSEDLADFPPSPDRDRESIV
experimental.endpoint: inhibition at 30 µM (%)

Nc1nc(CC(=O)Nc2ccc(C[C@@H]3CC[C@H]([C@H](O)c4ccccc4)N3)cc2)cs1; 26

###

biological target: Beta-1 adrenergic receptor (Homo sapiens); test: Agonist activity at human beta1 adrenergic receptor; type: functional
Sequence (P08588 whole entry): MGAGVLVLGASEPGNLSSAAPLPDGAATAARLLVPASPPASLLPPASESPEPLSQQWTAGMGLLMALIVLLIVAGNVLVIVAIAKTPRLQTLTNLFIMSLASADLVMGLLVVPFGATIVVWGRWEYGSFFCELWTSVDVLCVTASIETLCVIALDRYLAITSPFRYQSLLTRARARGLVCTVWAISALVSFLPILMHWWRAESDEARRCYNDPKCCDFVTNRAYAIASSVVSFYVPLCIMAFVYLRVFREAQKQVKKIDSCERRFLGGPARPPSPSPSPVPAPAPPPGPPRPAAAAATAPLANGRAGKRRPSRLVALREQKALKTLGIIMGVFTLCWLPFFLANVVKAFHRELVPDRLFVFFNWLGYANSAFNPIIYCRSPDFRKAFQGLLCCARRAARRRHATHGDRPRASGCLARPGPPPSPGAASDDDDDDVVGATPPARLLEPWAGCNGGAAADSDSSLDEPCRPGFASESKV
pIC50: −log10 of the molar value.
Class Satisfied: pIC50 at least 6. Class Not satisfied: pIC50 below 6.

O=S(=O)(Nc1ccc(CC2CC[C@@H]([C@@H](O)c3ccccc3)N2)cc1)c1ccc(-c2nc(-c3ccc(C(F)(F)F)cc3)cs2)cc1 (mixture of isomers); Not satisfied
O=S(=O)(Nc1ccc(C[C@@H]2CC[C@H]([C@H](O)c3ccccc3)N2)cc1)c1ccc(-c2nc(-c3ccc(C(F)(F)F)cc3)cs2)cc1; Not satisfied
O=S(=O)(Nc1ccc(CC2CC[C@H]([C@H](O)c3ccccc3)N2)cc1)c1ccc(-c2nc(-c3ccc(C(F)(F)F)cc3)cs2)cc1 (mixture of isomers); Not satisfied
O=S(=O)(Nc1ccc(CC2CC[C@@H]([C@H](O)c3ccccc3)N2)cc1)c1ccc(-c2nc(-c3ccc(C(F)(F)F)cc3)cs2)cc1 (mixture of isomers); Not satisfied
O=S(=O)(Nc1ccc(C[C@H]2CC[C@H]([C@H](O)c3ccccc3)N2)cc1)c1ccc(-c2nc(-c3ccc(C(F)(F)F)cc3)cs2)cc1; Satisfied
Nc1nc(CC(=O)Nc2ccc(C[C@@H]3CC[C@H]([C@H](O)c4ccccc4)N3)cc2)cs1; Not satisfied
